System: NCI/ADR-RES ovarian
ASSAY COMMENT: NCI tumour cell line growth inhibition, 48 h
Measured TGI, listed per entry for reference.

- COMPOUND: "O=C1ON=C2C3CC4CC12CC1(C3)C(=O)ON=C41"
  TGI: "> 100 µM"
- COMPOUND: "CCN(CC)C(=O)N1CN(c2ccccc2)C2(CCN(CCCSc3ccc(F)cc3)CC2)C1=O"
  TGI: "83.4 µM"
- COMPOUND: "C=CCCCCCCCCCOC1C=CC(OC(C)=O)C(COC(C)=O)O1 (stereo not given)"
  TGI: "> 100 µM"
- COMPOUND: "CC(NC(=O)C(N)CC(=O)O)NC(=O)N(C)C(C)(C)C (stereo not given)"
  TGI: "> 100 µM"
- COMPOUND: "c1ccc(C(CCN2CC3CCC(CC3)C2)c2ccccc2)cc1"
  TGI: "58.3 µM"

###

System: NCI-H460 lung
ASSAY COMMENT: NCI tumour cell line growth inhibition, 48 h
Measured GI50, listed per entry for reference.
EXPERIMENTAL READOUT: GI50

- COMPOUND SMILES: "Cn1c(=O)c(Oc2ccccc2)cc2cnc(NC3CCOCC3)nc21"
  TGT: "NCI-H460 lung"
  EXPERIMENTAL READOUT: "GI50"
  RESULT: "> 25 µM"
- COMPOUND SMILES: "Fc1ccc2[nH]cc(SSc3c[nH]c4ccc(F)cc34)c2c1"
  TGT: "NCI-H460 lung"
  EXPERIMENTAL READOUT: "GI50"
  RESULT: "4.44 µM"
- COMPOUND SMILES: "Oc1ccc(C#CCOc2ccccc2)cc1CNCCN(Cc1ccccn1)Cc1ccccn1"
  TGT: "NCI-H460 lung"
  EXPERIMENTAL READOUT: "GI50"
  RESULT: "0.538 µM"

###

Measured TGI, listed per entry for reference.
Test system: OVCAR-4 ovarian
ASSAY COMMENT: NCI tumour cell line growth inhibition, 48 h
*1 amine or outer side, *2 acyl side, *3 side chain or, on linkers, in order; H or OH if unused. Where a SMILES comes first, the peptide text is derived from it. [ ]: non-standard residue; d: D form. ξ: configuration not given here. X21 = CC[C@@H](C)C(N[*:1])C(=O)[*:2]; ξR = N=C(N)NCCCC(N)C(=O)O; ξI = CCC(C)C(N)C(=O)O; ξL = CC(C)CC(N)C(=O)O; ξK = NCCCCC(N)C(=O)O; ξV = CC(C)C(N)C(=O)O; ξA = CC(N)C(=O)O

- MOLECULE: "COc1ccc2c(c1)/C(=N/OC(C)=O)c1c-2c(=O)[nH]c2ccccc12"
  TGI: "21.3 µM"
- MOLECULE: "CCCCCCC(C)OC(=O)/C=C(\\CC(=O)OC(C)CCCCCC)C(=O)OC(C)CCCCCC (stereo not drawn)"
  TGI: "> 100 µM"
- MOLECULE: "CSc1nc2c(=O)n(-c3ccccc3)c(=S)n(-c3ccccc3)c2s1"
  TGI: "> 100 µM"
- MOLECULE: "Cn1cnc([N+](=O)[O-])c1Sc1nnnn1-c1ccccc1"
  TGI: "22.2 µM"
- MOLECULE: "COc1cc(OC)c(C(=O)/C=C/c2cccc(OC(C)=O)c2)cc1CC=C(C)C"
  TGI: "> 50 µM"
- MOLECULE: "CC(C)C1CC[C@H](C)C[C@@H]1OC(=O)C(C(=O)O[C@H]1C[C@@H](C)CCC1C(C)C)C(O)[C@@H]1OC(C)(C)O[C@H]1C1COC(C)(C)O1 (stereo partly drawn)"
  TGI: "50.9 µM"
- MOLECULE: "CC(C)OC(=O)[C@@H](O)[C@H](CO)C1=CC([Si](C)(C)c2ccccc2)=CON1"
  TGI: "> 100 µM"
- MOLECULE: "CN1CCN(c2ccc(C(=O)Nc3cc(-c4cccc(NS(=O)(=O)c5ccccc5)c4)[nH]n3)cc2)CC1"
  TGI: "28.7 µM"
- MOLECULE: "NNC(=O)/C(NC(=O)c1ccccc1)=C(\\N)c1ccc(Cl)cc1"
  TGI: "> 100 µM"
- MOLECULE: "NC(CC1=CCC=CC1)C(=O)O (stereo not drawn)"
  TGI: "> 100 µM"
- MOLECULE: "O=C1c2ccccc2C(=O)c2c(O)ccc(O)c21"
  TGI: "> 100 µM"
- MOLECULE: "CC(=O)O[C@H]1[C@@H](OC(C)=O)C(C)(C)/C=C/[C@H](C)C(=O)[C@@]2(OC(C)=O)C[C@@](C)(OC(C)=O)[C@H](OC(C)=O)[C@@H]2[C@H]2OC(=O)CC[C@@]2(OC(=O)c2ccccc2)[C@@H]1OCC(C)C"
  TGI: "> 100 µM"
- MOLECULE: "CCC(C)C1NC(=O)C(CC(C)C)NC(=O)C(C)NC(=O)C(C(C)C)NC(=O)C(CCCCN)NC(=O)C(CC(C)C)NC(=O)C(C(C)C)NC(=O)[C@H](C)NC(=O)C(C(C)CC)NC(=O)C(CCCN=C(N)N)NC(=O)C(CCCCN)NC(=O)C(CCCN=C(N)N)NC(=O)C(CCCCN)NC(=O)C([C@H](C)CC)NC(=O)C(CCCCN)NC1=O (stereo partly drawn) (cyclo(A[ξV][ξL][ξK][ξV][ξA][ξL][ξI][ξK][X21][ξK][ξR][ξK][ξR][ξI]))"
  TGI: "10.2 µM"
- MOLECULE: "Cc1ccc(S(=O)(=O)N2CCNCCN(S(=O)(=O)c3ccc(C)cc3)CCN(S(=O)(=O)c3ccc(C)cc3)CC2)cc1"
  TGI: "> 100 µM"
- MOLECULE: "CC(C)(C)c1ccc(C(C)(C)C)c(N2C(=O)C3ON=C(c4ccc([N+](=O)[O-])cc4)C3C2=O)c1 (stereo not drawn)"
  TGI: "> 25 µM"
- MOLECULE: "CCSc1nnc(-c2ccc3ccccc3c2O)n1-c1ccc(Cl)cc1"
  TGI: "> 100 µM"
- MOLECULE: "C=C1C(=O)O[C@@H]2[C@H](O)[C@@H](C)[C@@H]3C=CC(=O)[C@@]3(C)[C@H](OC(=O)C=C(C)C)[C@H]12"
  TGI: "4.92 µM"
- MOLECULE: "O=C(O)C1CCCCC1c1c2ccc(=O)cc-2oc2cc(O)ccc12 (stereo not drawn)"
  TGI: "88.1 µM"
- MOLECULE: "CC1(CC2=C(C(=O)NCCO[Si](C)(C)C(C)(C)C)C3(OCCO3)C2=O)OCCO1"
  TGI: "> 100 µM"
- MOLECULE: "CCOC(=O)CSc1[nH]c(NC(=S)Nc2ccccc2)c(C(N)=O)c1C(N)=O"
  TGI: "> 10 µM"
- MOLECULE: "Oc1ccccc1-c1n[nH]c(=S)n1/N=C/c1ccc(-c2ccc(Br)cc2)o1"
  TGI: "50.5 µM"
- MOLECULE: "NC1CC(=O)c2sccc21 (stereo not drawn)"
  TGI: "> 100 µM"
- MOLECULE: "C=C(C(=O)OC)c1cc2ccccc2n1S(=O)(=O)c1ccccc1"
  TGI: "11.3 µM"

###

Tested on: UO-31 renal
ASSAY COMMENT: NCI tumour cell line growth inhibition, 48 h
Measured TGI, listed per entry for reference.
EXPERIMENTAL READOUT: TGI

- MOLECULE: "Cc1ccc2c(c1)CNc1ccc(C)cc1CN2"
  TGT: "UO-31 renal"
  EXPERIMENTAL READOUT: "TGI"
  RESULT: "> 100 µM"
- MOLECULE: "CCCCCCC(C)OC(=O)/C=C(\\CC(=O)OC(C)CCCCCC)C(=O)OC(C)CCCCCC (stereo not drawn)"
  TGT: "UO-31 renal"
  EXPERIMENTAL READOUT: "TGI"
  RESULT: "> 100 µM"
- MOLECULE: "CC(=O)OC1Oc2ccccc2-c2oc(=O)c(-c3cc4ccccc4oc3=O)cc21 (stereo not drawn)"
  TGT: "UO-31 renal"
  EXPERIMENTAL READOUT: "TGI"
  RESULT: "35.4 µM"
- MOLECULE: "C=CCn1cc(C(=O)NC(=O)NCCCCCOC(=O)CCCCCCCCCCC(=O)OCCCCCNC(=O)NC(=O)c2cn(CC=C)c(=O)n(C)c2=O)c(=O)n(C)c1=O"
  TGT: "UO-31 renal"
  EXPERIMENTAL READOUT: "TGI"
  RESULT: "> 100 µM"
- MOLECULE: "N#CC1CC2(C(=O)C1=O)c1ccccc1-c1ccccc12 (stereo not drawn)"
  TGT: "UO-31 renal"
  EXPERIMENTAL READOUT: "TGI"
  RESULT: "> 100 µM"
- MOLECULE: "Cn1c(=O)c(Oc2ccccc2)cc2cnc(NC3CCOCC3)nc21"
  TGT: "UO-31 renal"
  EXPERIMENTAL READOUT: "TGI"
  RESULT: "> 25 µM"
- MOLECULE: "O=C(O)C1CCCCC1c1c2ccc(=O)cc-2oc2cc(O)ccc12 (stereo not drawn)"
  TGT: "UO-31 renal"
  EXPERIMENTAL READOUT: "TGI"
  RESULT: "> 100 µM"
- MOLECULE: "C=C1C(=O)OC2CC(C)C3C=CC(=O)C3CC12 (stereo not drawn)"
  TGT: "UO-31 renal"
  EXPERIMENTAL READOUT: "TGI"
  RESULT: "8.41 µM"
- MOLECULE: "CCOC(=O)Nc1nc2c(C)cccc2s1"
  TGT: "UO-31 renal"
  EXPERIMENTAL READOUT: "TGI"
  RESULT: "> 100 µM"
- MOLECULE: "COc1ccc2c(c1)C1(C(=O)N2)C(C#N)=C(c2ccccc2)Nc2c1c(-c1ccccc1)nn2-c1ccccc1 (stereo not drawn)"
  TGT: "UO-31 renal"
  EXPERIMENTAL READOUT: "TGI"
  RESULT: "30.1 µM"
- MOLECULE: "O=C1CS/C(=N\\S(=O)(=O)c2ccc(N3N=C4c5ccccc5CC4C3c3ccc(Cl)cc3)cc2)N1c1ccccc1 (stereo not drawn)"
  TGT: "UO-31 renal"
  EXPERIMENTAL READOUT: "TGI"
  RESULT: "> 100 µM"
- MOLECULE: "O=C1CCCC2=C1CC1=C(CCCC1=O)N2c1ccccc1"
  TGT: "UO-31 renal"
  EXPERIMENTAL READOUT: "TGI"
  RESULT: "> 100 µM"
- MOLECULE: "Oc1ccc(C#CCOc2ccccc2)cc1CNCCN(Cc1ccccn1)Cc1ccccn1"
  TGT: "UO-31 renal"
  EXPERIMENTAL READOUT: "TGI"
  RESULT: "2.5 µM"

Data origin: PubChem BioAssay (NCI)
